System: Glycine max
protocolNotes: Genotoxicity in Glycine max (soybean) exposed to compound through spray 4 times over 2 weeks assessed as relative adduct level A2 measured per 10^9 nucleotides using HX-dG internal standard using [32P]labeling based autoradiography relative to untreated control
Assay type: organism-based
reportedConditions: in vivo, other, 336 h
measurementKind: Activity (cpm)
Answer in cpm, number only, no unit symbol.

Prompt line: Identify measured Activity associated with CCOP(=S)(OCC)Oc1cc(C)nc(C(C)C)n1 [DIMPYLATE]
Response line: 2483

***
Prompt line: Identify measured Activity associated with CNC(=O)Oc1cccc2ccccc12
Response line: 571

Prompt line: Identify measured Activity associated with CC(C)[C@H](C(=O)O[C@H](C#N)c1cccc(Oc2ccccc2)c1)c1ccc(Cl)cc1
Response line: 2477

Prompt line: Identify measured Activity associated with N#Cc1c(Cl)c(Cl)c(Cl)c(C#N)c1Cl
Response line: 8753

----------
Listed here: items and their measured Activity.
Test system: Glycine max
protocolNotes: Genotoxicity in Glycine max (soybean) exposed to compound through spray 4 times over 2 weeks assessed as HNE-dG adducts using [32P]labeling based autoradiography (reference value: 34 cpm)
Format: organism-based
reportedConditions: in vivo, other, 336 h
Answer in cpm, number only, no unit symbol.

Here are 3 molecules together with their reported answers.
Prompt line: Identify measured Activity associated with N#Cc1c(Cl)c(Cl)c(Cl)c(C#N)c1Cl
Response line: 8163

Prompt line: Identify measured Activity associated with CCOP(=S)(OCC)Oc1cc(C)nc(C(C)C)n1 [DIMPYLATE]
Response line: 1679

Prompt line: Identify measured Activity associated with CNC(=O)Oc1cccc2ccccc12
Response line: 2956

Continue with the molecule presented below.
Prompt line: Identify measured Activity associated with CC(C)[C@H](C(=O)O[C@H](C#N)c1cccc(Oc2ccccc2)c1)c1ccc(Cl)cc1
Response line: 3062

----------
Listed here: items and their measured Activity.
Tested on: Glycine max
protocolNotes: Genotoxicity in Glycine max (soybean) exposed to compound through spray 4 times over 2 weeks assessed as relative adduct level A1 measured per 10^9 nucleotides using [32P]labeling based autoradiography relative to untreated control
Assay type: organism-based
reportedConditions: in vivo, other, 336 h
Enter the number alone.

Prompt line: Identify measured Activity associated with CC(C)[C@H](C(=O)O[C@H](C#N)c1cccc(Oc2ccccc2)c1)c1ccc(Cl)cc1
Response line: 26

***
Prompt line: Identify measured Activity associated with N#Cc1c(Cl)c(Cl)c(Cl)c(C#N)c1Cl
Response line: 797

Prompt line: Identify measured Activity associated with CNC(=O)Oc1cccc2ccccc12
Response line: 11

Prompt line: Identify measured Activity associated with CCOP(=S)(OCC)Oc1cc(C)nc(C(C)C)n1 [DIMPYLATE]
Response line: 1

----------
System: Glycine max
protocolNotes: Genotoxicity in Glycine max (soybean) exposed to compound through spray 4 times over 2 weeks assessed as relative adduct level A1 measured per 10^9 nucleotides using HX-dG internal standard using [32P]labeling based autoradiography relative to untreated control
Type: organism-based
reportedConditions: in vivo, other, 336 h
measurementKind: Activity (cpm)
Answer in cpm, number only, no unit symbol.

Prompt line: Identify measured Activity associated with CCOP(=S)(OCC)Oc1cc(C)nc(C(C)C)n1 [DIMPYLATE]
Response line: 46

Prompt line: Identify measured Activity associated with N#Cc1c(Cl)c(Cl)c(Cl)c(C#N)c1Cl
Response line: 40547

Prompt line: Identify measured Activity associated with CC(C)[C@H](C(=O)O[C@H](C#N)c1cccc(Oc2ccccc2)c1)c1ccc(Cl)cc1
Response line: 1344

Prompt line: Identify measured Activity associated with CNC(=O)Oc1cccc2ccccc12
Response line: 569
